Assign pIC50 to each entry below.
test system: HAP1 MTAP-intact cell line; test: SDMA in-cell western assay, HAP1 MTAP-intact; format: cell-based; settings: Homo sapiens, HAP1, read-out: MTAP HAP1 intact IC50
pIC50: −log10 of the molar value.

The compound listed as CCc1cc(NC(=O)C(=O)N2C[C@H](C)CC[C@H]2c2ccc3scnc3c2)cnc1N (stereo in doubt) has a reported pIC50 of < 6.00

The compound listed as C[C@@H]1CC[C@@H](c2ccc3sc(C4CCN(C)CC4)nc3c2)N(C(=O)C(=O)Nc2cnc(N)c(C3CC3)c2)C1 (single isomer, unassigned) has a reported pIC50 of < 6.00

The compound listed as C[C@@H]1CC[C@H](c2ccccc2)N(C(=O)C(=O)Nc2cncc(C(N)=O)c2)C1 (single isomer, unassigned) has a reported pIC50 of < 6.00

The compound listed as Cc1cc(NC(=O)C(=O)N2C[C@H](C)CC[C@H]2c2ccc3c(c2)CCC(=O)N3)cnc1N (single isomer, unassigned) has a reported pIC50 of 6.00 to 7.00

The compound listed as Cc1cc(NC(=O)C(=O)N2C[C@@H](C)CC[C@@H]2c2ccc(O)cc2)cnc1N (single isomer, unassigned) has a reported pIC50 of < 6.00

The compound listed as Cc1cc(NC(=O)C(=O)N2C[C@@H](C)CC[C@@H]2c2ccc3[nH]ncc3c2)cnc1N (single isomer, unassigned) has a reported pIC50 of < 6.00

The compound listed as COc1ncc(NC(=O)C(=O)N2C[C@@H](C)CC[C@H]2c2ccccc2)cc1C(N)=O (single isomer, unassigned) has a reported pIC50 of < 6.00

The compound listed as `Cc1cc(NC(=O)C(=O)N2C[C@@H](C)CC[C@@H]2c2ccc3sc(N4CCN(C)CC4)nc3c2)cnc1N` has a reported pIC50 of > 7.00

The compound listed as `C[C@H]1CC[C@H](c2ccc3scnc3c2)N(C(=O)C(=O)Nc2cnc(N)c(C3CC3)c2)C1` has a reported pIC50 of 6.00 to 7.00

The compound listed as `CCc1cc(NC(=O)C(=O)N2C[C@@H](C)CC[C@@H]2c2ccc3sc(C4(C)CCN(C)CC4)nc3c2)cnc1N` has a reported pIC50 of > 7.00

The compound listed as CCc1cc(NC(=O)C(=O)N2C[C@@H](C)CC[C@@H]2c2ccc3scnc3c2)cnc1N (stereo in doubt) has a reported pIC50 of 6.00 to 7.00

The compound listed as COc1ncc(NC(=O)C(=O)N2C[C@H](C)CC[C@H]2c2ccccc2)cc1C(N)=O (single isomer, unassigned) has a reported pIC50 of < 6.00

The compound listed as Cc1cc(NC(=O)C(=O)N2C[C@H](C)CC[C@H]2c2ccc3sc(CN(C)C)nc3c2)cnc1N (single isomer, unassigned) has a reported pIC50 of > 7.00

====

Assign pIC50 to each entry below.
molecular target: PRMT5 (Homo sapiens, UniProt O14744); construct: purchased Viva (custom protein); assay: PRMT5 biochemical IC50 assay with MTA as cofactor; details: PRMT5, MTA as cofactor; read-out: MTA IC50
Sequence (O14744 whole entry): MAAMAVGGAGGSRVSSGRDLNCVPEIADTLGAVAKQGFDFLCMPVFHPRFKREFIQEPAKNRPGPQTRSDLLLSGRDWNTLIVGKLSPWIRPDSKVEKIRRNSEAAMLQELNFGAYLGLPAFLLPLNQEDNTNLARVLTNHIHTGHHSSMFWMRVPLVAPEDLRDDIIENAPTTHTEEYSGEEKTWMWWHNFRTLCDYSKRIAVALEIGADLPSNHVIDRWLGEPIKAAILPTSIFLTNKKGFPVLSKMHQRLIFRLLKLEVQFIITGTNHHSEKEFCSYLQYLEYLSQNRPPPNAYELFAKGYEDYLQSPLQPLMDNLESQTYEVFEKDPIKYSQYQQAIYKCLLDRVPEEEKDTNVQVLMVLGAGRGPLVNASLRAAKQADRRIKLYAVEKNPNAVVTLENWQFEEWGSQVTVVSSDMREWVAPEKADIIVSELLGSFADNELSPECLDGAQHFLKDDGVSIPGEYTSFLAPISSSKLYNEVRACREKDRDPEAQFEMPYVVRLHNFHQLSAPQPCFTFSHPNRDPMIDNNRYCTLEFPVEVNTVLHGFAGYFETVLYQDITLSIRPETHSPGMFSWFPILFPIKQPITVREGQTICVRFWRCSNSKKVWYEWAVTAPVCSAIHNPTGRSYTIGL
Sequence (Q9BQA1 whole entry partner): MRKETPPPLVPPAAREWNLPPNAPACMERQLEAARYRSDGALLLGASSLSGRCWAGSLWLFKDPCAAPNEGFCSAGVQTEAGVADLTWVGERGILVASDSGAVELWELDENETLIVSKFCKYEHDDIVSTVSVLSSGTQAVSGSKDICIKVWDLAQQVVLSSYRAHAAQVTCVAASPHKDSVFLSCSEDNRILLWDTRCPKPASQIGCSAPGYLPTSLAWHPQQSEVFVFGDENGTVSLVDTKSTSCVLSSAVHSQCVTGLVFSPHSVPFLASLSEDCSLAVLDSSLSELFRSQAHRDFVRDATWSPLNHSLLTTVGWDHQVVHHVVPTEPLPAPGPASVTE
pIC50: −log10 of the molar value.

// returns pIC50 for CCc1cc(NC(=O)C(=O)N2C[C@@H](C)CC[C@@H]2c2ccc(N3CCOC4(CN(C)C4)C3)cc2)cnc1N (racemic) [Compound 1329] with PRMT5 (Homo sapiens, UniProt O14744); value = 6.30 to 7.30

// returns pIC50 for NC(=O)c1cncc(NC(=O)C(=O)N2C[C@@H](CO)CC[C@H]2c2ccccc2)c1 (racemic) with PRMT5 (Homo sapiens, UniProt O14744); value = 6.30 to 7.30

// returns pIC50 for C[C@@H]1CN(C(=O)C(=O)Nc2cncc(C(N)=O)c2)[C@@H](c2ccccc2)CC1(F)F (single isomer, unassigned) with PRMT5 (Homo sapiens, UniProt O14744); value = < 6.30

// returns pIC50 for COc1ncc(NC(=O)C(=O)N2C[C@H](C)CC[C@H]2c2cscn2)cc1C(N)=O (single isomer, unassigned) with PRMT5 (Homo sapiens, UniProt O14744); value = > 7.30

// returns pIC50 for COc1ncc(NC(=O)C(=O)N2C[C@H](C)CC[C@H]2c2ccc(NC(C)=O)nc2)cc1C(N)=O (single isomer, unassigned) with PRMT5 (Homo sapiens, UniProt O14744); value = > 7.30

// returns pIC50 for CCc1nc2cc([C@@H]3CC[C@@H](C)CN3C(=O)C(=O)Nc3cnc(N)c(C)c3)ccc2s1 (racemic) with PRMT5 (Homo sapiens, UniProt O14744); value = 6.30 to 7.30

// returns pIC50 for Cc1cc(NC(=O)C(=O)N2CCCC[C@H]2c2cccs2)cnc1N (single isomer, unassigned) with PRMT5 (Homo sapiens, UniProt O14744); value = 6.30 to 7.30

// returns pIC50 for CCc1cc(NC(=O)C(=O)N2C[C@@H](C)CC[C@@H]2c2ccc3nn([C@H]4CCN(C)C4)cc3c2)cnc1N (racemic) with PRMT5 (Homo sapiens, UniProt O14744); value = > 7.30

// returns pIC50 for COc1ncc(NC(=O)C(=O)N2C[C@H](C)C(F)(F)C[C@H]2c2ccc(F)cc2)cc1C(N)=O (single isomer, unassigned) with PRMT5 (Homo sapiens, UniProt O14744); value = > 7.30

// returns pIC50 for `Cc1cc(NC(=O)C(=O)N2C[C@@H](C)CC[C@@H]2c2ccc3sc(C4CCN(C)CC4)nc3c2)cnc1C` with PRMT5 (Homo sapiens, UniProt O14744); value = > 7.30

// returns pIC50 for C[C@H]1CC[C@H](c2ccc(-c3nccs3)cc2)N(C(=O)C(=O)Nc2cncc(C(N)=O)c2)C1 (single isomer, unassigned) with PRMT5 (Homo sapiens, UniProt O14744); value = < 6.30

// returns pIC50 for Cc1cc(NC(=O)C(=O)N2[C@H](C)CCC[C@@H]2c2ccccc2)cnc1N (single isomer, unassigned) with PRMT5 (Homo sapiens, UniProt O14744); value = > 7.30

// returns pIC50 for C[C@H]1CC[C@H](c2cc(F)c3[nH]ncc3c2)N(C(=O)C(=O)Nc2cncc(C(N)=O)c2)C1 (single isomer, unassigned) with PRMT5 (Homo sapiens, UniProt O14744); value = < 6.30

Attribution: patent US11999727B2
